Data origin, for the record: patent US8987234B2

test-description: physchem
Assay type: physicochemical
readout-name: pKa
Lab note: record just the number, no unit beside it.

// query Value lookup for pKa; key = O=C1C(O)=C([C@H]2CC[C@H](c3ccc(Cl)cc3)CC2)C(=O)c2ccccc21
// result 8.39
